Exercise: state measured koff for each of the binders provided.
# SUBJECT_OF_TEST: T1, mature recombinant human GDF-15 with an N-terminal Flag and His tag, biotinylated (human, UniProt Q99988 197-308, chemically biotinylated with EZ link Sulfo-NHS-LC-Biotin, sites not stated)
# T1 construct: not shown: N-terminal Flag and His tags
# T1 sequence: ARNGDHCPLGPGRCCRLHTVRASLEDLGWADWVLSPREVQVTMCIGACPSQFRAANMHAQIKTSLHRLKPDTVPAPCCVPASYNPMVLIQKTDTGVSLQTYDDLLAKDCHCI
# PROTOCOL: SPR Biacore 8K, 25 C, biotinylated GDF-15 on streptavidin C1 chip, Fab as analyte

BINDER	koff
AB1170245 Fab (Fab, V domains shown, Fab of the humanized antibody, expressed as in Spooner et al. 2015) VH: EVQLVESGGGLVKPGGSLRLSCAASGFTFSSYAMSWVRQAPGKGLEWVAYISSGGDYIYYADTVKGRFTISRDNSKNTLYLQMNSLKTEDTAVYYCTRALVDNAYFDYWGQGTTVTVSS VL: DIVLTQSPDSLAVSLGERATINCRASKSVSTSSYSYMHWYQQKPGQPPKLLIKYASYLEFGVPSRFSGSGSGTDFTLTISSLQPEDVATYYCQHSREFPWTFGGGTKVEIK	0.0315 s⁻¹

Return reported koff values for all items listed beneath this line.
1. AB1170249 Fab (Fab, V domains shown, Fab of the humanized antibody, expressed as in Spooner et al. 2015) VH: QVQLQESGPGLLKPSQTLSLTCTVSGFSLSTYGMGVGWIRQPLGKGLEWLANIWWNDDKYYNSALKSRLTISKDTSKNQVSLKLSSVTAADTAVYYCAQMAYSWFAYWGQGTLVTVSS VL: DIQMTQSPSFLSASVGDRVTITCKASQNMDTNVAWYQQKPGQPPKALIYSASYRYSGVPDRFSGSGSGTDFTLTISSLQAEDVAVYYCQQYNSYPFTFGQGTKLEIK
2. AB1170243 Fab (Fab, V domains shown, Fab of the humanized antibody, expressed as in Spooner et al. 2015) VH: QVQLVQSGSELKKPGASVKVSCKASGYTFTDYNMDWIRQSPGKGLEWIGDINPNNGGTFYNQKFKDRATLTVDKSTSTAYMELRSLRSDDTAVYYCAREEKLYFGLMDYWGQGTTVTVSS VL: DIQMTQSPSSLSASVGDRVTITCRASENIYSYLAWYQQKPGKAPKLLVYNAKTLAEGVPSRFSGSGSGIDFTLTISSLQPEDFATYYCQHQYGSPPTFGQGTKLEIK

1. 0.0114 s⁻¹
2. 0.000422 s⁻¹

FYI, the data here is from patent US20220281965A1.
